Assay: Half life in Sprague-Dawley rat at 10 mg/kg, po or 0.5 mg/kg, iv
Type: ADME, organism-based
Settings: in vivo
measured_parameter: half-life (min)
Give your result in min as a bare value.

Suppose we examine the molecule N#Cc1ccccc1Cn1c(=O)n(C[C@H]2CC[C@H](C(=O)Nc3ccncc3)CC2)c(=O)c2ccccc21 ; what half-life value has been reported?
43.2

* * *

Assay: Oral bioavailability in Beagle dog at 2 mg/kg
Assay type: ADME, organism-based, Canis lupus familiaris
Conditions: in vivo
measured_parameter: bioavailability (%)
Give your result in % as a bare value.

Suppose we examine the molecule Cc1cccc2c1c(=O)n(C[C@H]1CC[C@H](C(=O)O)CC1)c(=O)n2Cc1cccc(C(F)(F)F)c1C#N ; what bioavailability value has been reported?
52.2
